target: CYP3A4 (Homo sapiens, UniProt P08684); construct: pre-incubated with human liver microsomes and NADPH; from tissue; host or cells: human liver microsomes; test: Cytochrome P450 inhibition assay (midazolam hydroxylation); assay type: in vitro ADME; conditions: human, human liver microsomes, probe midazolam (hydroxylation to 1′-hydroxymidazolam), 10 μM test compound, midazolam at approximately its Km
Sequence (P08684 whole entry): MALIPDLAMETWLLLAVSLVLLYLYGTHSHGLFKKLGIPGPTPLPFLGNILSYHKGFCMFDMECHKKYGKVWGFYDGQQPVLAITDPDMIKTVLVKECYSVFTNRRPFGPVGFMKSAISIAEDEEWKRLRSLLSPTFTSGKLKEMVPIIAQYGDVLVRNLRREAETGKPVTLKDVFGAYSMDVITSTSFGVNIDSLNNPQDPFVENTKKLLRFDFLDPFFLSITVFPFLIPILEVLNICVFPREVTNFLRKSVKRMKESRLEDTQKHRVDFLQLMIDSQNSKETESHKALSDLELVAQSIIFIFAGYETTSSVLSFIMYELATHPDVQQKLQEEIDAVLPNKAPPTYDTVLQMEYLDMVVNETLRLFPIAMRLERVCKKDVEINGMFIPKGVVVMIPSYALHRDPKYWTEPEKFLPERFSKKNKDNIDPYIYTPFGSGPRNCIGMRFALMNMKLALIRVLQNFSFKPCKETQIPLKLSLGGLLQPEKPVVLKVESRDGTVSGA
READOUT: inhibition at 10 µM (%)

compound="C[C@@H]1CCCN(C(=O)c2ccc(F)c(F)c2-n2nccn2)[C@@H]1CNc1ncc(C(F)(F)F)cn1 [Example A325]" numeric_value=80
compound="Cc1ccc(-n2nccn2)c(C(=O)N2CCC[C@@H](C)[C@H]2CNc2ncc(C(F)(F)F)cc2F)n1 [Example A188]" numeric_value=59
compound="Cc1cccc(C(=O)N2CCC[C@@H](C)[C@H]2CNc2ncc(C(F)(F)F)cn2)c1-n1nccn1 [Example A267]" numeric_value=65
compound="C[C@@H]1CCCN(C(=O)c2cc(F)c(F)cc2-n2nccn2)[C@@H]1CNc1ccc(C(F)(F)F)cn1 [Example A249]" numeric_value=83
compound="Cc1cccc(C(=O)N2CCC[C@@H](C)[C@H]2CNc2ccc(C(F)(F)F)cn2)c1-c1ncccn1 [Example A298]" numeric_value=75
compound="C[C@@H]1CCCN(C(=O)c2ccccc2-n2nccn2)[C@@H]1CNc1ccc(C(F)(F)F)cn1 [Example A314]" numeric_value=76
compound="Cc1ccc(-c2nccc(C)n2)c(C(=O)N2CCC[C@@H](C)[C@H]2CNc2nc3cc(Cl)ccc3o2)c1 [Example A35]" numeric_value=92
compound="Cc1cc(F)cc(C(=O)N2CCC[C@@H](C)[C@H]2CNc2ncc(C(F)(F)F)cn2)c1-n1nccn1 [Example A349]" numeric_value=59
compound="Cc1ccc(-n2nccn2)c(C(=O)N2CCC[C@@H](C)[C@H]2CNc2ncc(C(F)(F)F)cc2F)c1 [Example A82]" numeric_value=68
compound="C[C@@H]1CCCN(C(=O)c2cc(F)ccc2-n2nccn2)[C@@H]1CNc1ncc(C(F)(F)F)cn1 [Example A207]" numeric_value=44
compound="Cc1ccc(-c2ncccn2)c(C(=O)N2CCC[C@@H](C)[C@H]2CNc2ccc(C(F)(F)F)cn2)n1 [Example A183]" numeric_value=49
compound="Cc1cc(F)cc(C(=O)N2CCC[C@@H](C)[C@H]2CNc2ccc(C(F)(F)F)cn2)c1-n1nccn1 [Example A348]" numeric_value=77
compound="C[C@@H]1CCCN(C(=O)c2c(F)cccc2-c2ncccn2)[C@@H]1CNc1ncc(Cl)cn1 [Example A239]" numeric_value=50
compound="Cc1ccc(-n2cnc(C)n2)c(C(=O)N2CCC[C@@H](C)[C@H]2CNc2nc3cc(Cl)ccc3o2)c1 [Example A29]" numeric_value=91
compound="Cc1ccc(-n2nccn2)c(C(=O)N2CCC[C@@H](C)[C@H]2CNc2ncc(F)cn2)c1 [Example A171]" numeric_value=36

* * *

biological target: CYP3A4 (Homo sapiens, UniProt P08684); construct: pre-incubated with human liver microsomes and NADPH; from tissue; host or cells: human liver microsomes; assay: Cytochrome P450 inhibition assay (midazolam hydroxylation); assay type: in vitro ADME; settings: human, human liver microsomes, probe midazolam (hydroxylation to 1′-hydroxymidazolam), 10 μM test compound, midazolam at approximately its Km
READOUT: inhibition at 10 µM (%)

structure_as_smiles=Cc1ccc(-n2ccnc2)c(C(=O)N2CCC[C@@H](C)[C@H]2CNc2nc3cc(Cl)ccc3o2)c1 numeric_value=98
structure_as_smiles=C[C@@H]1CCCN(C(=O)c2cccc(F)c2-n2nccn2)[C@@H]1CNc1ccc(C(F)(F)F)cn1 numeric_value=69
structure_as_smiles=Cc1ccc(-c2ccc(F)cc2)c(C(=O)N2CCC[C@@H](C)[C@H]2CNc2ccc(C(F)(F)F)cn2)n1 numeric_value=76
structure_as_smiles=Cc1cc(F)c(-n2nccn2)c(C(=O)N2CCC[C@@H](C)[C@H]2CNc2ccc(C(F)(F)F)cn2)c1 numeric_value=83
structure_as_smiles=C[C@@H]1CCCN(C(=O)c2c(F)ccc(F)c2-c2ncccn2)[C@@H]1CNc1ccc(C(F)(F)F)cn1 numeric_value=54
structure_as_smiles=Cc1ccc(-n2nccn2)c(C(=O)N2CCC[C@@H](C)[C@H]2CNc2ccc(Cl)cn2)c1 numeric_value=84
structure_as_smiles=Cc1ccc(-c2ccccn2)c(C(=O)N2CCC[C@@H](C)[C@H]2CNc2ccc(C(F)(F)F)cn2)c1 numeric_value=89
structure_as_smiles=Cc1ccc(-n2nccn2)c(C(=O)N2CCC[C@@H](C)[C@H]2CNc2cccc(C#N)n2)c1 numeric_value=67
structure_as_smiles=Cc1ccc(-c2ccc(C(F)(F)F)cn2)c(C(=O)N2CCC[C@@H](C)[C@H]2CNc2ccc(Cl)cn2)c1 numeric_value=83
structure_as_smiles=Cc1ccc(-c2nccs2)c(C(=O)N2CCC[C@@H](C)[C@H]2CNc2nc3cc(Cl)ccc3o2)c1 numeric_value=97
structure_as_smiles=Cc1ccc(-n2nccn2)c(C(=O)N2CCC[C@@H](C)[C@H]2CNc2ncccc2C#N)c1 numeric_value=33
structure_as_smiles=C[C@@H]1CCCN(C(=O)c2c(F)cccc2-n2nccn2)[C@@H]1CNc1ccc(Cl)cn1 numeric_value=77
structure_as_smiles=Cc1ccc(-c2cncs2)c(C(=O)N2CCC[C@@H](C)[C@H]2CNc2ccc(C(F)(F)F)cn2)c1 numeric_value=99
structure_as_smiles=Cc1ccc(-c2cnn(C)c2)c(C(=O)N2CCC[C@@H](C)[C@H]2CNc2ccc(Cl)cn2)c1 numeric_value=96
structure_as_smiles=C[C@@H]1CCCN(C(=O)c2cc(Cl)ccc2-c2ncccn2)[C@@H]1CNc1ncc(C(F)(F)F)cn1 numeric_value=38
